Recorded values, source ChEMBL document CHEMBL6153131.

- tgt: Protein cereblon/Indoleamine 2,3-dioxygenase 1 (Homo sapiens, UniProt P14902+Q96SW2)
- Sequence (P14902 whole entry): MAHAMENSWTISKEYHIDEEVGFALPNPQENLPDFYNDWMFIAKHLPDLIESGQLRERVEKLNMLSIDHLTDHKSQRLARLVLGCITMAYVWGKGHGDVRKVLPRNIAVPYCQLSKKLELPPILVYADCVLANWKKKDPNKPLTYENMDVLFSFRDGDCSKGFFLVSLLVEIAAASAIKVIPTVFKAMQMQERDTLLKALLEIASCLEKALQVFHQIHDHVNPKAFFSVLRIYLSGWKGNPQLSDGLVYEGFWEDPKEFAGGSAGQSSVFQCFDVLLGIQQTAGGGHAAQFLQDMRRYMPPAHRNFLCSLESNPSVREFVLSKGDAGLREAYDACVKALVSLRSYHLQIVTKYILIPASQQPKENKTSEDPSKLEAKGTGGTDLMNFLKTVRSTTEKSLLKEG
- Sequence (Q96SW2 whole entry): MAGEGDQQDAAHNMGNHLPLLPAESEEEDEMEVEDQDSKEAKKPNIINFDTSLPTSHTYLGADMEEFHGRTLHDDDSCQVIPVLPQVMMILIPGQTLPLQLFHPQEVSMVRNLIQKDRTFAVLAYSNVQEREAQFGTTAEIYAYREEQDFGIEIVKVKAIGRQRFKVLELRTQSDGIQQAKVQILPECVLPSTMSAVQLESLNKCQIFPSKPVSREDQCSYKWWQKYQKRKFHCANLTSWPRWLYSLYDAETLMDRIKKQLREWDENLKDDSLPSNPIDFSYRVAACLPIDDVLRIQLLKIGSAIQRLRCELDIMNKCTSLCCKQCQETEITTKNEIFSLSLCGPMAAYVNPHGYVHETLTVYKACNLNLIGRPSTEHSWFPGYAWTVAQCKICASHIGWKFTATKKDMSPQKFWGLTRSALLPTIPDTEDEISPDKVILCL
- assay: PROTAC activity at CRBN/N-terminal HiBiT-tagged IDO1 (unknown origin) transfected in human U87 cells assessed as induction of IDO1 degradation pretreated with IFN-gamma for 24 hrs followed by compound addition and measured after 24 hrs by Nano-Glo HiBiT assay
- Format: cell-based
# reported DC50; entries follow

Consider the worked cases shown below.
compound	DC50
C[C@@H](C(=O)Nc1ccc(OC2CCN(C(=O)CN3CCC(CN4CCN(c5cccc6c5C(=O)N(C5CCC(=O)NC5=O)C6=O)CC4)CC3)CC2)cc1)[C@H]1CC[C@@H](c2ccnc3ccc(F)cc32)CC1 (some centres not stated)	> 10 µM
C[C@@H](C(=O)Nc1cccc(OC2CCN(C(=O)CN3CCC(N4CCN(c5ccc6c(c5)C(=O)N(C5CCC(=O)N(C)C5=O)C6=O)CC4)CC3)CC2)c1)[C@H]1CC[C@@H](c2ccnc3ccc(F)cc32)CC1 (some centres not stated)	> 10 µM
C[C@@H](C(=O)Nc1ccc(Cl)c(OC2CCN(C(=O)CN3CCC(CN4CCN(c5ccc6c(c5)C(=O)N(C5CCC(=O)NC5=O)C6=O)CC4)CC3)CC2)c1)[C@H]1CC[C@@H](c2ccnc3ccc(F)cc32)CC1 (some centres not stated)	0.008 µM
C[C@@H](C(=O)Nc1cccc(OC2CCN(C(=O)CN3CCN(c4ccc5c(c4)C(=O)N(C4CCC(=O)NC4=O)C5=O)CC3)CC2)c1)[C@H]1CC[C@@H](c2ccnc3ccc(F)cc32)CC1 (some centres not stated)	> 10 µM
C[C@@H](C(=O)Nc1ccc(Cl)c(OC2CCN(C(=O)CCOCCOCCNc3ccc4c(c3)C(=O)N(C3CCC(=O)NC3=O)C4=O)CC2)c1)[C@H]1CC[C@@H](c2ccnc3ccc(F)cc32)CC1 (some centres not stated)	> 10 µM

**Q:** Please list DC50 recorded for the compound C[C@@H](C(=O)Nc1ccc(OC2CCN(C(=O)CCOCCOCCNc3ccc4c(c3)C(=O)N(C3CCC(=O)NC3=O)C4=O)CC2)cc1)[C@H]1CC[C@@H](c2ccnc3ccc(F)cc32)CC1 (some centres not stated)
**A:** > 10 µM

**Q:** Please list DC50 recorded for the compound C[C@@H](C(=O)Nc1cccc(OC2CCN(C(=O)CN3CCC(CN4CCN(c5ccc6c(c5)C(=O)N(C5CCC(=O)NC5=O)C6=O)CC4)CC3)CC2)c1)[C@H]1CC[C@@H](c2ccnc3ccc(F)cc32)CC1 (some centres not stated)
**A:** 0.02 µM
